Numbers sourced from the RNAGym collection of RNA variant scans (doi:10.1073/pnas.2313332121).

Here, each record is paired with measured polymerase ribozyme fitness (log ratio) data.
B1: TPR 5TU (parent)
chain: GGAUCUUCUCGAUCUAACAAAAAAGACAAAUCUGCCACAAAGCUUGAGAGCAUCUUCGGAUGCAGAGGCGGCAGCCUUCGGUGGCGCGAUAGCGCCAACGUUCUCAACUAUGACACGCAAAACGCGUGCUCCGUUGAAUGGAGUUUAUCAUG

Variants of: B1
measurement.description: polymerase ribozyme fitness, log enrichment relative to wild type (log ratio); higher = more active; in vitro selection for triplet polymerase activity
Variants at the floor of the assay were thinned out.
Answer using only a numeral; do not append any unit.

Known results for variants:
var	quantitative.result
C76U U135G	-2.79
U15C A37U C118U	-0.404
A97C	0.773
C87U C129A	-2.76

Prompt: Which polymerase ribozyme fitness (log ratio) value belongs to C18U G84A U102A C123G ?
Completion: -2.76

Prompt: Same question, A47U U56A G94A C118U A121U this time
Completion: -0.95

Prompt: Another variant to look at: U15C A49G C85U U109G
Completion: -0.987

Prompt: // same read-out, input: A39G C57G C105G A147U
Completion: -3.4

Prompt: Same thing, different variant: A39C G143U
Completion: -4.15
